Overview of recorded pKd for various binders
# subject_of_test: T1, Human Angiopoietin-2 full-length (hAng2) (human, UniProt O15123 19-496)
# T1 construct: The cell assays used full-length hAng2 from R&D Systems; also called human Ang2; A2
# T1 sequence: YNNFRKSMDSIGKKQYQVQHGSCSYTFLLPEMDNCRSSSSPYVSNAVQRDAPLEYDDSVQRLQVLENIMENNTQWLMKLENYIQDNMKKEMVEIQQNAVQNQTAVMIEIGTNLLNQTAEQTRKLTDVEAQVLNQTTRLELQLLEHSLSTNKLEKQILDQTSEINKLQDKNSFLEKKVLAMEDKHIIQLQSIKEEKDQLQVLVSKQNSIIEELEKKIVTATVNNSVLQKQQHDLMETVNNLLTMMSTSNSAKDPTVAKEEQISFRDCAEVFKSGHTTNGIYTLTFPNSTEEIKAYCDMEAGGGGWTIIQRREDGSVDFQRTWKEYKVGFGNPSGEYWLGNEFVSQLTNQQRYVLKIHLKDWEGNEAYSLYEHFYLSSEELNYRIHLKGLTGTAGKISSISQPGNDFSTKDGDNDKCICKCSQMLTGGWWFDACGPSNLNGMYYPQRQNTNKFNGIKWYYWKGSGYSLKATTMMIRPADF
# assay_notes: BLI (Octet), hAng2 fixed on AR2G sensor, antibody 3.125-50 nM in solution, 1:1 global fit
Remember the convention: pKd equals -log10 of concentration in molar.

# binder, pKd
measured = [
    ("mouse anti-Ang2 antibody 4B9 (antibody, V domains shown, Mouse monoclonal antibody from a hybridoma (KCLRF-BP-00418), purified on Protein G) VH: EVQLVESGGGLVKPGGSLKLSCAASGFTFSDYYMYWVRQTPEKRLEWVATISVGGSFTYYPDSVKGRFTISRDNAKNNLYLQMSSLKSEDTAMYYCARDWGLRPWFVYWGQGTLVTVSA VL: DIVMTQSHKFMSTSVGDRVSITCKASQDVSTAVAWYQQKPGQSPKLLIYWASTRHTGVPDRFTGSGSGTDYTLTISSVQAEDLALYYCQQHYSTPPTFGSGTKLEIK", 11.43),
    ("mouse anti-Ang2 antibody 2F10 (antibody, V domains shown, Mouse monoclonal antibody from a hybridoma, purified on Protein G) VH: QVQLVESGGGLVKPGGSLKLSCAASGFTFSDYYMYWIRQTPEKRLEWVATINDGGSYTYYPDSVKGRFTISRDNAKNNLYLQMSSLKSEDTAMYYCARDWGLRPWFVYWGQGTLVTVSA VL: DIVMTQSHKFMSTSVGDRVSITCKASQDVSTAVAWYQQKPGQSPKLLIYWASTRHTGVPDRFTGSGSGTDYTLTISSVQAEDLALYYCQQHYTTPPTFGSGTKLEIK", 9.86),
    ("mouse anti-Ang2 antibody 2C8 (antibody, V domains shown) VH: QVQLQQSGPQLVRPGASVKISCKASGYSFTSYWMHWVKQRPGQGLEWIGMIDPSDSETRLNQKFKDKASLTVDKSSSTAYMQLSSPTSGDSAVYYCARRFYYGSDWYFDVWGAGSTVTVSS VL: DIVMTQSHKFMSTSVGDRVSITCKASQDVGTAVAWYQQKPGQSPKLLIYWASTRHTGVPDRFTGSGSGTDFTLTISNVQSEDLADYFCQQYSSYPLTFGSGTKLEIK", 10.34),
]

Proceed to the following item.
QUERY: Return pKd for the following binder: mouse anti-Ang2 antibody 4E2 (antibody, V domains shown, Mouse monoclonal antibody from a hybridoma, purified on Protein G) VH: EVQLQQSGPELEKPGASVKISCKASGYSFTGYNMNWVKQSNGKSLEWIGNIDPYYGGTSYNQKFKGKATLTVDKSSSTAYMQLKSLTSEDSAVYYCVRYGNYVDYWGQGTTLTVSS VL: DIVMTQSHKFMSTSVGDRVSITCKASQDVSTAVAWYQQKPGQSPKLLIYWASTRHTGVPDRFTGSGSGTDYTLTISSVQAEDLALYYCQQHYNTPPTFGSGTKLEIK
RESULT: 8.32
